// data source = BigSolDB 2.1

# STATED CONDITIONS: in DMAc, 288.15 K
PARAMETER MEASURED: solubility (mole fraction)
Answers are plain numbers.

Request: Need solubility (mole fraction) of CCCc1nc(C(C)(C)O)c(C(=O)OCC)n1Cc1ccc(-c2ccccc2-c2nnnn2C(c2ccccc2)(c2ccccc2)c2ccccc2)cc1 , thanks.
Response: 0.00655

###

# STATED CONDITIONS: in cyclohexanone, 278.15 K
PARAMETER MEASURED: solubility (mole fraction)

Request: Need solubility (mole fraction) of CCCc1nc(C(C)(C)O)c(C(=O)OCC)n1Cc1ccc(-c2ccccc2-c2nnnn2C(c2ccccc2)(c2ccccc2)c2ccccc2)cc1 , thanks.
Response: 0.00729

###

# STATED CONDITIONS: in methanol, 293.15 K
PARAMETER MEASURED: solubility (mole fraction)
Give bare numbers.

Request: Need solubility (mole fraction) of CCCc1nc(C(C)(C)O)c(C(=O)OCC)n1Cc1ccc(-c2ccccc2-c2nnnn2C(c2ccccc2)(c2ccccc2)c2ccccc2)cc1 , thanks.
Response: 8.11e-05

###

# STATED CONDITIONS: in ethyl acetate, 293.15 K
PARAMETER MEASURED: solubility (mole fraction)

Request: Need solubility (mole fraction) of CCCc1nc(C(C)(C)O)c(C(=O)OCC)n1Cc1ccc(-c2ccccc2-c2nnnn2C(c2ccccc2)(c2ccccc2)c2ccccc2)cc1 , thanks.
Response: 0.00308

###

# STATED CONDITIONS: in isobutanol, 298.15 K
PARAMETER MEASURED: solubility (mole fraction)
Numbers only.

Request: Need solubility (mole fraction) of CCCc1nc(C(C)(C)O)c(C(=O)OCC)n1Cc1ccc(-c2ccccc2-c2nnnn2C(c2ccccc2)(c2ccccc2)c2ccccc2)cc1 , thanks.
Response: 0.000255

###

# STATED CONDITIONS: in isopropanol, 293.15 K
PARAMETER MEASURED: solubility (mole fraction)

Request: Need solubility (mole fraction) of CCCc1nc(C(C)(C)O)c(C(=O)OCC)n1Cc1ccc(-c2ccccc2-c2nnnn2C(c2ccccc2)(c2ccccc2)c2ccccc2)cc1 , thanks.
Response: 0.000102

###

# STATED CONDITIONS: in cyclohexanone, 303.15 K
PARAMETER MEASURED: solubility (mole fraction)
Numbers only.

Request: Need solubility (mole fraction) of CCCc1nc(C(C)(C)O)c(C(=O)OCC)n1Cc1ccc(-c2ccccc2-c2nnnn2C(c2ccccc2)(c2ccccc2)c2ccccc2)cc1 , thanks.
Response: 0.0147

###

# STATED CONDITIONS: in n-propanol, 278.15 K
PARAMETER MEASURED: solubility (mole fraction)
Numbers only.

Request: Need solubility (mole fraction) of CCCc1nc(C(C)(C)O)c(C(=O)OCC)n1Cc1ccc(-c2ccccc2-c2nnnn2C(c2ccccc2)(c2ccccc2)c2ccccc2)cc1 , thanks.
Response: 0.000144

###

# STATED CONDITIONS: in ethyl acetate, 313.15 K
PARAMETER MEASURED: solubility (mole fraction)
Give bare numbers.

Request: Need solubility (mole fraction) of CCCc1nc(C(C)(C)O)c(C(=O)OCC)n1Cc1ccc(-c2ccccc2-c2nnnn2C(c2ccccc2)(c2ccccc2)c2ccccc2)cc1 , thanks.
Response: 0.00607

###

# STATED CONDITIONS: in isopropanol, 283.15 K
PARAMETER MEASURED: solubility (mole fraction)
Answers are plain numbers.

Request: Need solubility (mole fraction) of CCCc1nc(C(C)(C)O)c(C(=O)OCC)n1Cc1ccc(-c2ccccc2-c2nnnn2C(c2ccccc2)(c2ccccc2)c2ccccc2)cc1 , thanks.
Response: 6.87e-05

###

# STATED CONDITIONS: in ethanol, 283.15 K
PARAMETER MEASURED: solubility (mole fraction)

Request: Need solubility (mole fraction) of CCCc1nc(C(C)(C)O)c(C(=O)OCC)n1Cc1ccc(-c2ccccc2-c2nnnn2C(c2ccccc2)(c2ccccc2)c2ccccc2)cc1 , thanks.
Response: 0.000102

###

# STATED CONDITIONS: in DMF, 283.15 K
PARAMETER MEASURED: solubility (mole fraction)
Answers are plain numbers.

Request: Need solubility (mole fraction) of CCCc1nc(C(C)(C)O)c(C(=O)OCC)n1Cc1ccc(-c2ccccc2-c2nnnn2C(c2ccccc2)(c2ccccc2)c2ccccc2)cc1 , thanks.
Response: 0.00148

###

# STATED CONDITIONS: in isobutanol, 303.15 K
PARAMETER MEASURED: solubility (mole fraction)

Request: Need solubility (mole fraction) of CCCc1nc(C(C)(C)O)c(C(=O)OCC)n1Cc1ccc(-c2ccccc2-c2nnnn2C(c2ccccc2)(c2ccccc2)c2ccccc2)cc1 , thanks.
Response: 0.000302

###

# STATED CONDITIONS: in acetone, 283.15 K
PARAMETER MEASURED: solubility (mole fraction)
Numbers only.

Request: Need solubility (mole fraction) of CCCc1nc(C(C)(C)O)c(C(=O)OCC)n1Cc1ccc(-c2ccccc2-c2nnnn2C(c2ccccc2)(c2ccccc2)c2ccccc2)cc1 , thanks.
Response: 0.000854

###

# STATED CONDITIONS: in ethyl acetate, 288.15 K
PARAMETER MEASURED: solubility (mole fraction)
Give bare numbers.

Request: Need solubility (mole fraction) of CCCc1nc(C(C)(C)O)c(C(=O)OCC)n1Cc1ccc(-c2ccccc2-c2nnnn2C(c2ccccc2)(c2ccccc2)c2ccccc2)cc1 , thanks.
Response: 0.00256

###

# STATED CONDITIONS: in isobutanol, 308.15 K
PARAMETER MEASURED: solubility (mole fraction)

Request: Need solubility (mole fraction) of CCCc1nc(C(C)(C)O)c(C(=O)OCC)n1Cc1ccc(-c2ccccc2-c2nnnn2C(c2ccccc2)(c2ccccc2)c2ccccc2)cc1 , thanks.
Response: 0.000352

###

# STATED CONDITIONS: in DMAc, 278.15 K
PARAMETER MEASURED: solubility (mole fraction)
Answers are plain numbers.

Request: Need solubility (mole fraction) of CCCc1nc(C(C)(C)O)c(C(=O)OCC)n1Cc1ccc(-c2ccccc2-c2nnnn2C(c2ccccc2)(c2ccccc2)c2ccccc2)cc1 , thanks.
Response: 0.00501

###

# STATED CONDITIONS: in methanol, 318.15 K
PARAMETER MEASURED: solubility (mole fraction)
Give bare numbers.

Request: Need solubility (mole fraction) of CCCc1nc(C(C)(C)O)c(C(=O)OCC)n1Cc1ccc(-c2ccccc2-c2nnnn2C(c2ccccc2)(c2ccccc2)c2ccccc2)cc1 , thanks.
Response: 0.000175

###

# STATED CONDITIONS: in cyclohexanone, 288.15 K
PARAMETER MEASURED: solubility (mole fraction)
Give bare numbers.

Request: Need solubility (mole fraction) of CCCc1nc(C(C)(C)O)c(C(=O)OCC)n1Cc1ccc(-c2ccccc2-c2nnnn2C(c2ccccc2)(c2ccccc2)c2ccccc2)cc1 , thanks.
Response: 0.00967

###

# STATED CONDITIONS: in DMF, 298.15 K
PARAMETER MEASURED: solubility (mole fraction)
Give bare numbers.

Request: Need solubility (mole fraction) of CCCc1nc(C(C)(C)O)c(C(=O)OCC)n1Cc1ccc(-c2ccccc2-c2nnnn2C(c2ccccc2)(c2ccccc2)c2ccccc2)cc1 , thanks.
Response: 0.0028

###

# STATED CONDITIONS: in toluene, 303.15 K
PARAMETER MEASURED: solubility (mole fraction)
Answers are plain numbers.

Request: Need solubility (mole fraction) of CCCc1nc(C(C)(C)O)c(C(=O)OCC)n1Cc1ccc(-c2ccccc2-c2nnnn2C(c2ccccc2)(c2ccccc2)c2ccccc2)cc1 , thanks.
Response: 0.00738

###

# STATED CONDITIONS: in acetone, 293.15 K
PARAMETER MEASURED: solubility (mole fraction)

Request: Need solubility (mole fraction) of CCCc1nc(C(C)(C)O)c(C(=O)OCC)n1Cc1ccc(-c2ccccc2-c2nnnn2C(c2ccccc2)(c2ccccc2)c2ccccc2)cc1 , thanks.
Response: 0.00154

###

# STATED CONDITIONS: in acetone, 278.15 K
PARAMETER MEASURED: solubility (mole fraction)
Numbers only.

Request: Need solubility (mole fraction) of CCCc1nc(C(C)(C)O)c(C(=O)OCC)n1Cc1ccc(-c2ccccc2-c2nnnn2C(c2ccccc2)(c2ccccc2)c2ccccc2)cc1 , thanks.
Response: 0.000617

###

# STATED CONDITIONS: in DMAc, 293.15 K
PARAMETER MEASURED: solubility (mole fraction)

Request: Need solubility (mole fraction) of CCCc1nc(C(C)(C)O)c(C(=O)OCC)n1Cc1ccc(-c2ccccc2-c2nnnn2C(c2ccccc2)(c2ccccc2)c2ccccc2)cc1 , thanks.
Response: 0.00756

###

# STATED CONDITIONS: in n-propanol, 318.15 K
PARAMETER MEASURED: solubility (mole fraction)

Request: Need solubility (mole fraction) of CCCc1nc(C(C)(C)O)c(C(=O)OCC)n1Cc1ccc(-c2ccccc2-c2nnnn2C(c2ccccc2)(c2ccccc2)c2ccccc2)cc1 , thanks.
Response: 0.000519
